pIC50 by entry:
Tested on: Jeko-1 (Mantle Cell Lymphoma)
MEASUREMENT_NOTES: Single agent cell viability assay (CellTiter-Glo), 72 h continuous exposure
Assay type: cell-based
RECORDED_CONDITIONS: Homo sapiens, Jeko-1 cells
The read-out pIC50 is expressed as -log10 of concentration in moles per litre.

COMPOUND | ASSAY_TARGET | pIC50
COC1C(OC(=O)N[C@H]2CC[C@H](N)CC2)CC[C@]2(CO2)C1C1(C)O[C@@H]1CC=C(C)C (some centres unmarked) | Jeko-1 (Mantle Cell Lymphoma) | 4.51

Shifting focus to the compound that follows.
Query string: Param readout= pIC50; system= Jeko-1 (Mantle Cell Lymphoma); entry= CC(C)C[C@H](NC(=O)[C@H](Cc1ccccc1)NC(=O)c1cnccn1)B(O)O [Bortezomib, reference compound] ; returns value.
Result string: 6.40

----------
pIC50 by entry:
Test system: U266 (Myeloma)
MEASUREMENT_NOTES: Single agent cell viability assay (CellTiter-Glo), 72 h continuous exposure
Assay type: cell-based
RECORDED_CONDITIONS: Homo sapiens, U-266, U266 cells
The read-out pIC50 is expressed as -log10 of concentration in moles per litre.

MOLECULE | ASSAY_TARGET | pIC50
COC1C(OC(=O)N[C@H]2CC[C@H](N)CC2)CC[C@]2(CO2)C1C1(C)O[C@@H]1CC=C(C)C (some centres unmarked) | U266 (Myeloma) | 4.26

Query string: Please give the measured pIC50 for this molecule: CC(C)C[C@H](NC(=O)[C@H](Cc1ccccc1)NC(=O)c1cnccn1)B(O)O [Bortezomib, reference compound]
Result string: 8.62
